Can you tell me viability, T/C for the items I'm about to list?
system: 624824-186-R-J3-PDC multicell spheroids, viability; test: Anticancer human tumor 624824-186-R-J3-PDC patient-derived colon adenocarcinoma cell line growth inhibition [PI3K]; conditions: second compound 0.1 µM; first compound 0.1 µM; stronger effect = lower value;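 further: luminescent signal used as a stand-in for spheroid viability; spheroids exposed to agents for seven days before luminescence read; percent viability relative to DMSO vehicle control wells taken as 100%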
Give just the numeric value; % need not be written.

(Q) Could you tell me which viability, T/C is on file for CC(C)NCC(C(=O)N1CCN(c2ncnc3c2C(C)CC3O)CC1)c1ccc(Cl)cc1 (stereo unspecified) + CC(Nc1ncnc2nc[nH]c12)c1cc2cccc(Cl)c2c(=O)n1-c1ccccc1 ?
(A) 89.1

(Q) Which viability, T/C reading was recorded for the compound CC(C)n1nc(-c2ccc3oc(N)nc3c2)c2c(N)ncnc21 + COc1c(OCCCN2CCOCC2)ccc2c3n(c(=NC(=O)c4cnc(N)nc4)nc12)CCN3 ?
(A) 27.5

(Q) Consider the compound CCN1CCN(Cc2ccc(Nc3ncc(F)c(-c4cc(F)c5nc(C)n(C(C)C)c5c4)n3)nc2)CC1 + CC(Nc1ncnc2nc[nH]c12)c1cc2cccc(Cl)c2c(=O)n1-c1ccccc1 and give its measured viability, T/C.
(A) 106

(Q) Return reported viability, T/C; argument: C#Cc1c(F)ccc2cc(O)cc(-c3ncc4c(N5CC6CCC(C5)N6)nc(OCC56CCCN5CC(F)C6)nc4c3F)c12 (stereo unspecified) + CC(Nc1ncnc2nc[nH]c12)c1cc2cccc(Cl)c2c(=O)n1-c1ccccc1
(A) 99.2

(Q) Fill in the blank: the reported viability, T/C of CCCS(=O)(=O)Nc1ccc(F)c(C(=O)c2c[nH]c3ncc(-c4ccc(Cl)cc4)cc23)c1F + CC(Nc1ccc2c(c1)OCCn1cc(N3C(=O)OCC3C(F)F)nc1-2)C(N)=O is ____.
(A) 86.1

(Q) Item C#Cc1c(F)ccc2cc(O)cc(-c3ncc4c(N5CC6CCC(C5)N6)nc(OCC56CCCN5CC(F)C6)nc4c3F)c12 (stereo unspecified) + CC(Nc1ccc2c(c1)OCCn1cc(N3C(=O)OCC3C(F)F)nc1-2)C(N)=O has what recorded viability, T/C?
(A) 101

(Q) Entry under review: Cn1ncc(Cl)c1-c1cc(C(=O)NC(CN)Cc2cccc(F)c2)sc1Cl (stereo unspecified) + Cc1nc(NC(=O)N2CCCC2C(N)=O)sc1-c1ccnc(C(C)(C)C(F)(F)F)c1 . Reported viability, T/C?
(A) 103

(Q) Request the reported viability, T/C associated with CCN1CCN(Cc2ccc(Nc3ncc(F)c(-c4cc(F)c5nc(C)n(C(C)C)c5c4)n3)nc2)CC1 + COc1c(OCCCN2CCOCC2)ccc2c3n(c(=NC(=O)c4cnc(N)nc4)nc12)CCN3
(A) 40.8

(Q) Consider the compound C=CC(=O)N1CCN(c2nc(=O)n(-c3c(C)ccnc3C(C)C)c3nc(-c4c(O)cccc4F)c(F)cc23)C(C)C1 (stereo unspecified) + COc1c(OCCCN2CCOCC2)ccc2c3n(c(=NC(=O)c4cnc(N)nc4)nc12)CCN3 and give its measured viability, T/C.
(A) 79.3

(Q) Dear colleague, I am looking for the recorded viability, T/C of the following compound: CC(Cn1ccc(-c2ccc(C#N)c(Cl)c2)n1)NC(=O)c1cc(C(C)O)[nH]n1 (stereo unspecified) + COc1c(OCCCN2CCOCC2)ccc2c3n(c(=NC(=O)c4cnc(N)nc4)nc12)CCN3
(A) 79.9

(Q) // lookup viability, T/C for C[C@@H](NC(=O)c1ncnc(N)c1Cl)c1ncc(C(=O)Nc2cc(C(F)(F)F)c(Cl)cn2)s1 + CC(Nc1ncnc2nc[nH]c12)c1cc2cccc(Cl)c2c(=O)n1-c1ccccc1
(A) 101

(Q) What value of viability, T/C has been recorded for this entry: CNC(=O)c1ccc(N2C(=S)N(c3ccc(C#N)c(C(F)(F)F)c3)C(=O)C2(C)C)cc1F + CC(Nc1ncnc2nc[nH]c12)c1cc2cccc(Cl)c2c(=O)n1-c1ccccc1
(A) 101

(Q) Could you tell me which viability, T/C is on file for Cn1ncc(Cl)c1-c1cc(C(=O)NC(CN)Cc2cccc(F)c2)sc1Cl (stereo unspecified) + COc1c(OCCCN2CCOCC2)ccc2c3n(c(=NC(=O)c4cnc(N)nc4)nc12)CCN3 ?
(A) 80.5

(Q) Which viability, T/C value is on record for CC(C)NCC(C(=O)N1CCN(c2ncnc3c2C(C)CC3O)CC1)c1ccc(Cl)cc1 (stereo unspecified) + Cc1nc(NC(=O)N2CCCC2C(N)=O)sc1-c1ccnc(C(C)(C)C(F)(F)F)c1 ?
(A) 92.8

(Q) // returns reported viability, T/C for input Cn1nccc1Nc1nccc(-c2ccn(C(CO)c3ccc(Cl)c(F)c3)c(=O)c2)n1 (stereo unspecified) + CC(Nc1ncnc2nc[nH]c12)c1cc2cccc(Cl)c2c(=O)n1-c1ccccc1
(A) 85.4

(Q) Reported viability, T/C, compound Cn1ncnc1[C@H]1c2n[nH]c(=O)c3cc(F)cc(c23)N[C@@H]1c1ccc(F)cc1 + COc1c(OCCCN2CCOCC2)ccc2c3n(c(=NC(=O)c4cnc(N)nc4)nc12)CCN3 : ____
(A) 71
